- Test system: HCC-2998 colon
- procedureText: NCI-60 one-dose screen, 48 h
- conditionParameters: 10 µM unless noted
This is part of a sample that, as a whole, favours compounds with a hit. Of some 83,000 tested, about 20% had one in any assay. The source made the active and inactive calls. Rule for the calls: active = growth percent below 10; inactive = the rest.
Your answer must be one of the following: active, inactive

// param item: CCOc1cc(/C=N\NC(=O)N/N=C/c2ccc(O)c(OCC)c2)ccc1O ; yields the recorded call
inactive

// param item: CCCCCCSc1ncnc2nc[nH]c12 ; yields the recorded call
inactive

// param item: CCCCCN(CCCCC)CCCCCCCCN1CCCc2ccccc21 ; yields the recorded call
inactive

// param item: CCN(CC)CC(C)Nc1ccc(C)c2sc3ccccc3c(=O)c12 (stereo unspecified) ; yields the recorded call
inactive

// param item: CCCn1ccnc1C(O)c1ccc(OCc2ccccc2)c(OC)c1 (stereo unspecified) ; yields the recorded call
inactive

// param item: Nc1cc(Cl)cc2cccnc12 ; yields the recorded call
inactive

// param item: Oc1cc(Nc2ccnc3cc(Cl)ccc23)c2ncccc2c1 ; yields the recorded call
inactive

// param item: Clc1ccc(/C=N/Nc2nc3ccccc3s2)c(Cl)c1 ; yields the recorded call
inactive

// param item: Cn1cc(-c2nnc(-c3cn(C)c4ncc(Br)cc34)o2)c2ccccc21 ; yields the recorded call
inactive

// param item: CCOC(=O)c1sc2nc(-c3cc(OC)c(OC)c(OC)c3)nc(N3CCOCC3)c2c1C ; yields the recorded call
inactive

// param item: COc1ccc(C(C(=O)O)c2ccc(OC)cc2)cc1 ; yields the recorded call
inactive

// param item: C1=C[C@H]2O[C@@H]1c1ccc3[nH]ccc3c12 ; yields the recorded call
inactive

// param item: O=C1Nc2ccccc2/C1=C/C(=O)c1ccc(N2CCOCC2)cc1 ; yields the recorded call
inactive

// param item: O=C1CC(c2ccccc2)Cc2nc3ccc(Cl)cc3cc21 (stereo unspecified) ; yields the recorded call
active

// param item: N#CC1C(=O)NC(c2ccccc2[N+](=O)[O-])c2sc3c(F)cccc3c21 (stereo unspecified) ; yields the recorded call
inactive

// param item: O=C(Nc1cccnc1)c1ccc2ccc3ccc(C(=O)Nc4cccnc4)nc3c2n1 ; yields the recorded call
active

// param item: O=C(NCc1ccccc1)C(Cl)Cl ; yields the recorded call
inactive

// param item: CC1(C)S[C@@H]2[C@H](NC(=O)[C@H](C(=O)O)c3cccs3)C(=O)N2[C@H]1C(=O)O ; yields the recorded call
inactive

// param item: O=C1CN(Cc2ccc(C(=O)NO)cc2)C(=O)[C@@H](Cc2ccccc2)N1 ; yields the recorded call
inactive

// param item: C=C(C)[C@@H]1CC[C@]2(C(=O)NCCCN)CC[C@]3(C)[C@H](CC[C@@H]4[C@@]5(C)CC[C@H](O)C(C)(C)[C@@H]5CC[C@]43C)[C@@H]12 ; yields the recorded call
active

// param item: C[C@H]1[C@H](C)CC[C@]2(C(=O)O)CC[C@]3(C)C(=CC[C@@H]4[C@@]5(C)C/C(=C/c6ccco6)C(=O)C(C)(C)[C@@H]5CC[C@]43C)[C@H]12 ; yields the recorded call
active

----------
- Test system: OVCAR-5 ovarian
- procedureText: NCI-60 one-dose screen, 48 h
- conditionParameters: 10 µM unless noted
The panel holds about 83,000 compounds, 20% with a hit somewhere; the sample as a whole holds those more often. Calls of active or inactive are those of the source. Rule for the calls: active = growth percent below 10; inactive = the rest.
Your answer must be one of the following: active, inactive

// param item: CCNc1cc2c(cc1Br)-c1ccccc1C2=O ; yields the recorded call
inactive

// param item: O=C(CCNCc1ccccc1)c1ccccc1 ; yields the recorded call
inactive

// param item: CC1(C)C(=O)/C(=C\c2ccco2)C[C@]2(C)[C@H]3CC=C4[C@@H]5C[C@](C)(C(=O)O)CC[C@]5(C)CC[C@@]4(C)[C@]3(C)CC[C@@H]12 ; yields the recorded call
active

// param item: COc1ccc2nc3c(cc2c1)C(=O)CC(C(F)(F)F)C3 (stereo not given) ; yields the recorded call
inactive

// param item: COc1cc(C)cc2oc3oc(=O)c(-c4nc5ccccc5s4)cc3c(=O)c12 ; yields the recorded call
inactive

// param item: Cn1cc(-c2noc(-c3cn(C)c4ncc(Br)cc34)n2)c2cc(Cl)ccc21 ; yields the recorded call
inactive

// param item: O=c1[nH]c(CN2CCN(c3cccc(Cl)c3)CC2)nc2cc(Cl)ccc12 ; yields the recorded call
inactive

// param item: N#CC1C(=O)NC(c2ccccc2[N+](=O)[O-])c2sc3c(F)cccc3c21 (stereo not given) ; yields the recorded call
active

// param item: CCOC(=O)c1nn(C2CCCCO2)c2ccc(NC(=O)CN3CCCC3)cc12 (stereo not given) ; yields the recorded call
inactive

// param item: O=[N+]([O-])c1cccc(/C=C/c2ccc3ccccc3n2)c1 ; yields the recorded call
inactive

// param item: Cc1cccc(C[C@H](NC(=O)Nc2ccc(Cl)cc2F)C(=O)N[C@@H]2C(=O)N3C[C@H](O)C[C@H]3C(=O)N3CCN(C)C[C@H]3C(=O)N[C@@H](C)C(=O)N3C[C@H](C)C[C@H]3C(=O)O[C@H]2C)c1 ; yields the recorded call
inactive

// param item: COc1cc(/C=C/C(=O)/C=C/c2ccc(-n3ccnc3C)cc2)ccc1O ; yields the recorded call
inactive

// param item: C=C(CC(=O)OC)C(C)=O ; yields the recorded call
inactive

// param item: C1=C[C@H]2O[C@@H]1c1ccc3[nH]ccc3c12 ; yields the recorded call
inactive

// param item: COc1cc(-c2nc(SCCC(C)C)nc(Nc3ccc(S(N)(=O)=O)cc3)c2C#N)cc(OC)c1OC ; yields the recorded call
inactive

// param item: CC(=O)n1cc(C=O)c2ccccc21 ; yields the recorded call
inactive

// param item: COc1ccc(C2CC(c3cc(OC)c(OC)c(OC)c3)=NN2C(C)=O)cc1OCC(=O)Nc1nc2ccc(C(F)(F)F)cc2s1 (stereo not given) ; yields the recorded call
inactive

// param item: O=C(Nc1ccc(Cl)c(C(F)(F)F)c1)Nc1ccc(-c2cccnc2)cc1N1CCC(CO)CC1 ; yields the recorded call
inactive

// param item: NC(=S)Cc1ccccc1 ; yields the recorded call
inactive

// param item: O=C1/C(=C/c2cccc(OCc3ccccc3)c2)Oc2cc(OCCN3CCCCC3)ccc21 ; yields the recorded call
inactive

----------
- System: DU-145 prostate
- procedureText: NCI-60 one-dose screen, 48 h
- conditionParameters: 10 µM unless noted
This is part of a sample that, as a whole, favours compounds with a hit. Of some 83,000 tested, about 20% had one in any assay. Activity calls are given as the source filed them. The calls were made as follows: active = growth percent below 10; inactive = the rest.
Your answer must be one of the following: active, inactive

// param item: CCN(CC)c1ccc(/C=C/C=C2\NC(=O)NC2=O)cc1 ; yields the recorded call
inactive

// param item: O=C(NCCCCCCCNC(=O)OCc1ccc2c(Cl)cc(Cl)c(O)c2n1)OCc1ccc2c(Cl)cc(Cl)c(O)c2n1 ; yields the recorded call
active

// param item: COc1cc(/C=C/C(=O)/C=C/c2ccc(-n3ccnc3)cc2)ccc1O ; yields the recorded call
inactive

// param item: CC(C)(C)c1cc(C(=O)Nc2ccccc2C(=O)NCCN)cc(C(C)(C)C)c1 ; yields the recorded call
inactive

// param item: COc1ccc(-c2cc(-c3ccccc3)nc(SCCCCCC(=O)NO)n2)cc1 ; yields the recorded call
inactive

----------
- System: MALME-3M melanoma
- procedureText: NCI-60 one-dose screen, 48 h (100 = growth as untreated, 0 = no growth, -100 = all killed)
- conditionParameters: 10 µM unless noted
Compounds without any hit were thinned out: in the full panel of roughly 83,000, 20% have a hit. Active and inactive are the calls of the source. How the source made its calls: active means growth percent below 10; inactive means the rest.
endpointLabel: growth

Observed growth on MALME-3M melanoma, entry O=C(Nc1cccnc1)c1ccc2ccc3ccc(C(=O)Nc4cccnc4)nc3c2n1 , equals 46.7% (inactive)

Observed growth on MALME-3M melanoma, entry COCCCNc1nc(NC(=O)c2cc(Br)cc(C(F)(F)F)c2)cc(-c2cccnc2)n1 , equals 99.7% (inactive)

Observed growth on MALME-3M melanoma, entry Cn1cc(-c2nnc(-c3cn(C)c4ncccc34)o2)c2ccccc21 , equals 19.3% (inactive)

Observed growth on MALME-3M melanoma, entry CC(C)=CC/C=C(/C)[C@H]1CC[C@]2(C)[C@@H]1CC[C@@H]1[C@@]3(C)CCCNC(C)(C)[C@@H]3CC[C@]12C , equals -78.9% [100 µM] (active)

Observed growth on MALME-3M melanoma, entry CCOc1cccc2c(NC(C)CCCN(CC)CC)c(C)cnc12 (centres undefined) , equals 116% (inactive)

Observed growth on MALME-3M melanoma, entry N=C(N)c1ccc(-c2ccc(-c3ccc(-c4cccs4)s3)s2)cc1F , equals 102% (inactive)

Observed growth on MALME-3M melanoma, entry O=C1NC(=O)C(Cc2ccccc2)(Cc2ccccc2)N1 , equals 109% (inactive)

Observed growth on MALME-3M melanoma, entry CCN(CC)CC(C)Nc1ccc(C)c2sc3ccccc3c(=O)c12 (centres undefined) , equals 65.2% (inactive)

Observed growth on MALME-3M melanoma, entry Cc1cc(N2CCCCCC2)nc(N2CCN(CC(=O)Nc3ccc4c(ccn4Cc4ccccc4)c3)CC2)n1 , equals 50.9% (inactive)

Observed growth on MALME-3M melanoma, entry O=C(N[C@@H]1CCCc2ccccc21)[C@H](CCC(=O)N1CCN(C2CCCCC2)CC1)N1C(=O)[C@@H](N2C(=O)OC[C@@H]2c2ccccc2)[C@H]1/C=C/c1ccccc1 , equals -41.1% (active)

Observed growth on MALME-3M melanoma, entry CC1=CC[C@@H]2C(C)(C)C(=O)CC[C@@]2(C)[C@@H]1COc1ccc2ccc(=O)oc2c1 , equals 78% (inactive)

Observed growth on MALME-3M melanoma, entry CCCCN(CCCC)CC(O)c1ccc(OCc2ccccc2)c2ccccc12 (centres undefined) , equals 58.6% (inactive)

Observed growth on MALME-3M melanoma, entry Nc1nc(SCc2cccc([N+](=O)[O-])c2)c2[nH]cnc2n1 , equals 107% (inactive)

Observed growth on MALME-3M melanoma, entry CSc1nc(=S)c2nc(SC)n(-c3ccccc3)c2[nH]1 , equals 109% (inactive)

Observed growth on MALME-3M melanoma, entry CCN1c2ccccc2C(Cl)(c2ccc(N(C)C)cc2)c2ccccc21 , equals 9.82% (active)

Observed growth on MALME-3M melanoma, entry Nc1cc(Cl)cc2cccnc12 , equals 122% (inactive)

Observed growth on MALME-3M melanoma, entry Cc1ccc(NC(=O)N[C@@H](Cc2cc(F)cc(F)c2)C(=O)N[C@@H]2C(=O)N3CCC[C@H]3C(=O)N3CCCC[C@H]3C(=O)N[C@@H](C)C(=O)N3C[C@H](C)C[C@H]3C(=O)O[C@H]2C)cc1 , equals 35% (inactive)

Observed growth on MALME-3M melanoma, entry COc1ccc(C(=O)CSc2nnc(-c3cc(-c4ccccc4)nc4ccccc34)o2)cc1 , equals 96.7% (inactive)

Observed growth on MALME-3M melanoma, entry C=C(C)[C@@H]1CC[C@]2(COCCC#N)CC[C@]3(C)[C@H](CC[C@@H]4[C@@](C)(CCCNCCC#N)[C@H](C(=C)C)CC[C@]43C)[C@@H]12 , equals -47.8% [100 µM] (active)

Every entry's value here was drawn from PubChem BioAssay (NCI).
